This collection of values is drawn from the supplement of paper PMC13207355.

tested on: E21 (patient-derived glioblastoma stem cells of mesenchymal subtype); experiment: phenotypic distance (Euclidean, principal components) from DMSO controls (arbitrary units); higher = stronger morphological change; settings: 3000 nM; exposure time: 72 h;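 note: cell Painting imaging in 384-well plates, CellProfiler features reduced to at least 20 principal components, Euclidean distance versus same-plate DMSO vehicle wells (0.1% v/v), median over six images per well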
Structures can show the parent of a compound that is named as a salt.
phenotypic distance: recorded values
Answer with the value's number alone.

Completed entries (count: 5):
# Compound, phenotypic distance
data = [
    ("CC(C)CC(=O)N[C@H](C(=O)N[C@H](C(=O)N[C@@H](CC(C)C)[C@@H](O)CC(=O)N[C@@H](C)C(=O)N[C@@H](CC(C)C)[C@@H](O)CC(=O)O)C(C)C)C(C)C", 0.905),
    ("CC1=C(/C=C/C(C)=C/C=C/C(C)=C/C(=O)Nc2ccc(O)cc2)C(C)(C)CCC1 [Retinoic acid p-hydroxyanilide]", 10.8),
    ("CCCCC1C(=O)N(c2ccccc2)N(c2ccc(O)cc2)C1=O (configuration not stated)", 0.735),
    ("C=C(C)[C@H]1Cc2c(ccc3c2O[C@@H]2COc4cc(OC)c(OC)cc4[C@@H]2C3=O)O1", 7.81),
    ("COC(=O)Nc1nc2cc(Sc3ccccc3)ccc2[nH]1", 5.94),
]

INPUT: Sample CC(C)(C)C1CCN(C(=O)n2ncc(C(O)(c3ccccc3)c3ccccc3)n2)CC1 — what was its phenotypic distance?
OUTPUT: 0.961

INPUT: Sample CCC(C)(C)c1ccc(CC(C)CN2C[C@@H](C)O[C@@H](C)C2)cc1 (some centres not stated) [Amorolfine hydrochloride] — what was its phenotypic distance?
OUTPUT: 1.97
